Test system: EKVX
Assay: NCI tumour cell line growth inhibition, 48 h
Calls of active or inactive are those of the source. Rule as the data show it: active = GI50 up to about 1.1 µM and inactive = higher.
property.label: GI50

[[record]]
compound = "CC(C)(C)C(=O)Nc1cccc(-c2ccc[nH]2)n1"
property_label = "GI50"
result = "> 85.7 µM (inactive)"

[[record]]
compound = "C=C1C(=O)O[C@@H]2[C@H]3O[C@]3(C)CCC=C(C)CC[C@@H]12"
property_label = "GI50"
result = "17.4 µM (inactive)"

[[record]]
compound = "Brc1cccc(Nc2ncnc3sc4c(c23)CCC(Nc2cccc(Br)c2)C4)c1 (stereo unspecified)"
property_label = "GI50"
result = "> 100 µM (inactive)"

[[record]]
compound = "CSCCOC(=O)C(=[N+]=[N-])c1ccc([N+](=O)[O-])cc1"
property_label = "GI50"
result = "> 100 µM (inactive)"

[[record]]
compound = "Nc1c(C(=O)O)nnc2ccc(Cl)cc12"
property_label = "GI50"
result = "> 100 µM (inactive)"


Give GI50 for each of the items listed below.
1. O=C(O)CCCn1nnc2c(=O)[nH][nH]c(=O)c21
2. CCOC(=O)C(=O)Nc1cccc(C)c1C
3. Cc1ccc2nc(NC(=O)/C(=N\NC(=S)NN)C3C(=O)NC(=S)NC3=O)sc2c1

Result string:
1. > 100 µM (inactive)
2. > 100 µM (inactive)
3. > 100 µM (inactive)
